Biological target: human 5-HT2C receptor (Homo sapiens)
Construct: expressed in transfected cells; host or cells: HeLa (HeLa-5-HT2C cell line)
Sequence (P28335 33-458): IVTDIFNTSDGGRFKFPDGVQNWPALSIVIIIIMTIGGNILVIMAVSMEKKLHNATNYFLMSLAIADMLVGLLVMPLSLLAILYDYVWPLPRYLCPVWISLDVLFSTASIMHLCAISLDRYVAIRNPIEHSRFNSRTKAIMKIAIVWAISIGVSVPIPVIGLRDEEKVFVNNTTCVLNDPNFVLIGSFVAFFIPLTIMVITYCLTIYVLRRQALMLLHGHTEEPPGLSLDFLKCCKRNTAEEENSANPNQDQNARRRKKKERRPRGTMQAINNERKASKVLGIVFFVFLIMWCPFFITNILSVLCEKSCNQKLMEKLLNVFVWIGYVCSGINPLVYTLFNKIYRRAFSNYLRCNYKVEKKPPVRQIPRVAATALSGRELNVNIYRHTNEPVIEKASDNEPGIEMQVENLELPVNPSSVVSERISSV
Assay: Ca2+ mobilization in HeLa h5-HT2C cells
Format: cell-based
Details: Ca2+ mobilization; no unit in the table, nM; read-out: 5-HT2C EC50 (in parentheses) (converted)

[
  {
    "Molecule": "Brc1ccc(CNCCc2c[nH]c3ccccc23)cc1 [Compound 17]",
    "Result Units": "nM",
    "EC50": 6760
  },
  {
    "Molecule": "Oc1ccc(F)cc1CNCCc1c[nH]c2ccccc12 [Compound 24]",
    "Result Units": "nM",
    "EC50": 26.3
  },
  {
    "Molecule": "COc1ccc(CNCCc2c[nH]c3ccccc23)cc1 [Compound 13]",
    "Result Units": "nM",
    "EC50": 8.32
  },
  {
    "Molecule": "CCOc1ccc(CNCCc2c[nH]c3ccccc23)cc1 [Compound 15]",
    "Result Units": "nM",
    "EC50": 11.7
  },
  {
    "Molecule": "Fc1cccc(CNCCc2c[nH]c3ccccc23)c1 [Compound 9]",
    "Result Units": "nM",
    "EC50": 112
  },
  {
    "Molecule": "Clc1cccc(CNCCc2c[nH]c3ccccc23)c1 [Compound 10]",
    "Result Units": "nM",
    "EC50": 282
  },
  {
    "Molecule": "Oc1c(F)cccc1CNCCc1c[nH]c2ccccc12 [Compound 22]",
    "Result Units": "nM",
    "EC50": 17
  },
  {
    "Molecule": "Cc1ccc(CNCCc2c[nH]c3ccccc23)cc1 [Compound 14]",
    "Result Units": "nM",
    "EC50": 1200
  },
  {
    "Molecule": "Cc1cccc(CNCCc2c[nH]c3ccccc23)c1 [Compound 8]",
    "Result Units": "nM",
    "EC50": 29.5
  },
  {
    "Molecule": "Oc1c(Br)cccc1CNCCc1c[nH]c2ccccc12 [Compound 21]",
    "Result Units": "nM",
    "EC50": 27.5
  },
  {
    "Molecule": "Clc1ccccc1CNCCc1c[nH]c2ccccc12 [Compound 5]",
    "Result Units": "nM",
    "EC50": 195
  },
  {
    "Molecule": "Oc1cc(Br)ccc1CNCCc1c[nH]c2ccccc12 [Compound 31]",
    "Result Units": "nM",
    "EC50": 813
  },
  {
    "Molecule": "COc1ccc2[nH]cc(CCNCc3ccccc3OC)c2c1 [Compound 38]",
    "Result Units": "nM",
    "EC50": 3.8
  },
  {
    "Molecule": "COc1ccc2[nH]cc(CCNCc3ccccc3Br)c2c1 [Compound 40]",
    "Result Units": "nM",
    "EC50": 27.5
  },
  {
    "Molecule": "Brc1cccc(CNCCc2c[nH]c3ccccc23)c1 [Compound 11]",
    "Result Units": "nM",
    "EC50": 55
  },
  {
    "Molecule": "Brc1ccccc1CNCCc1c[nH]c2ccccc12 [Compound 6]",
    "Result Units": "nM",
    "EC50": 234
  },
  {
    "Molecule": "COc1ccc(F)cc1CNCCc1c[nH]c2ccccc12 [Compound 25]",
    "Result Units": "nM",
    "EC50": 52.5
  },
  {
    "Molecule": "Oc1ccc(CNCCc2c[nH]c3ccccc23)cc1 [Compound 12]",
    "Result Units": "nM",
    "EC50": 145
  },
  {
    "Molecule": "Oc1cccc(CNCCc2c[nH]c3ccccc23)c1 [Compound 7]",
    "Result Units": "nM",
    "EC50": 6.76
  },
  {
    "Molecule": "Cc1ccc(O)c(CNCCc2c[nH]c3ccccc23)c1 [Compound 23]",
    "Result Units": "nM",
    "EC50": 100
  },
  {
    "Molecule": "COc1ccc(CNCCc2c[nH]c3ccccc23)c(OC)c1 [Compound 32]",
    "Result Units": "nM",
    "EC50": 240
  },
  {
    "Molecule": "Oc1ccc(Br)cc1CNCCc1c[nH]c2ccccc12 [Compound 26]",
    "Result Units": "nM",
    "EC50": 708
  },
  {
    "Molecule": "COc1ccc(Cl)cc1CNCCc1c[nH]c2ccccc12 [Compound 28]",
    "Result Units": "nM",
    "EC50": 240
  },
  {
    "Molecule": "Oc1cccc(Br)c1CNCCc1c[nH]c2ccccc12 [Compound 33]",
    "Result Units": "nM",
    "EC50": 794
  },
  {
    "Molecule": "Oc1ccccc1CNCCc1c[nH]c2ccccc12 [Compound 2]",
    "Result Units": "nM",
    "EC50": 33.9
  },
  {
    "Molecule": "COc1ccc2[nH]cc(CCNCc3ccccc3Cl)c2c1 [Compound 39]",
    "Result Units": "nM",
    "EC50": 81.3
  },
  {
    "Molecule": "COc1ccc(OC)c(CNCCc2c[nH]c3ccccc23)c1 [Compound 29]",
    "Result Units": "nM",
    "EC50": 132
  },
  {
    "Molecule": "COc1ccc2[nH]cc(CCNCc3cc(F)ccc3O)c2c1 [Compound 43]",
    "Result Units": "nM",
    "EC50": 3.63
  },
  {
    "Molecule": "COc1ccc2[nH]cc(CCNCc3ccccc3)c2c1 [Compound 37]",
    "Result Units": "nM",
    "EC50": 14.4
  },
  {
    "Molecule": "Cc1ccccc1CNCCc1c[nH]c2ccccc12 [Compound 4]",
    "Result Units": "nM",
    "EC50": 138
  },
  {
    "Molecule": "Clc1ccc(CNCCc2c[nH]c3ccccc23)cc1 [Compound 16]",
    "Result Units": "nM",
    "EC50": 50.1
  },
  {
    "Molecule": "COc1cccc(CNCCc2c[nH]c3ccccc23)c1OC [Compound 20]",
    "Result Units": "nM",
    "EC50": 3630
  },
  {
    "Molecule": "COc1ccc(CNCCc2c[nH]c3ccccc23)cc1OC [Compound 36]",
    "Result Units": "nM",
    "EC50": 57.5
  },
  {
    "Molecule": "COc1ccc(Br)cc1CNCCc1c[nH]c2ccccc12 [Compound 27]",
    "Result Units": "nM",
    "EC50": 263
  },
  {
    "Molecule": "COc1cccc(CNCCc2c[nH]c3ccccc23)c1O [Compound 19]",
    "Result Units": "nM",
    "EC50": 93.3
  },
  {
    "Molecule": "c1ccc(CNCCc2c[nH]c3ccccc23)cc1 [Compound 1, N-Benzyl-[2-(1H-indol-3-yl)ethyl]amine]",
    "Result Units": "nM",
    "EC50": 50.1
  },
  {
    "Molecule": "COc1ccc2[nH]cc(CCNCc3ccc(Br)cc3)c2c1 [Compound 41]",
    "Result Units": "nM",
    "EC50": 132
  },
  {
    "Molecule": "NCCc1c[nH]c2ccccc12 [Tryptamine]",
    "Result Units": "nM",
    "EC50": 1.17
  },
  {
    "Molecule": "COc1ccccc1CNCCc1c[nH]c2ccccc12 [Compound 3]",
    "Result Units": "nM",
    "EC50": 35.5
  },
  {
    "Molecule": "Oc1cccc(F)c1CNCCc1c[nH]c2ccccc12 [Compound 34]",
    "Result Units": "nM",
    "EC50": 18.6
  },
  {
    "Molecule": "O=[N+]([O-])c1ccc(CNCCc2c[nH]c3ccccc23)cc1 [Compound 18]",
    "Result Units": "nM",
    "EC50": 525
  }
]

###

Target: human 5-HT2A receptor (Homo sapiens, UniProt P28223)
Construct: expressed in transfected cells; host or cells: CHO (CHO-5-HT2A cell line)
Sequence (P28223 whole entry): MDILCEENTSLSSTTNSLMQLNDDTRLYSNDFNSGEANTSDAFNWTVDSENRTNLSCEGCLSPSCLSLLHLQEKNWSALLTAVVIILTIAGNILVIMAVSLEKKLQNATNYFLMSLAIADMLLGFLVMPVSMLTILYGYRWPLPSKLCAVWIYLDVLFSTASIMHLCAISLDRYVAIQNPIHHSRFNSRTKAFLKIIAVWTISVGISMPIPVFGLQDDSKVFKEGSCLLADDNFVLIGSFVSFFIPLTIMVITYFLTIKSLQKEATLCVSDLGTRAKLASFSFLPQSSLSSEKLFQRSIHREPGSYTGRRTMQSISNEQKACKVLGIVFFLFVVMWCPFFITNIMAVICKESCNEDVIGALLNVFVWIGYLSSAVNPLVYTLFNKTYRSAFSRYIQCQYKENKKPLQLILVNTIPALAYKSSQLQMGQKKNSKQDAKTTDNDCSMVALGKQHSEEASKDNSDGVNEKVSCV
Experiment: Ca2+ mobilization in CHO h5-HT2A cells
Type: cell-based
Conditions: from EC50 values, Table 2
Quantity Name: Selectivity 5-HT2A/2C (functional)

[
  {
    "Smiles": "COc1ccc2[nH]cc(CCNCc3cc(F)ccc3O)c2c1",
    "Readout Value": 2.63
  },
  {
    "Smiles": "Oc1cccc(F)c1CNCCc1c[nH]c2ccccc12",
    "Readout Value": 0.47
  },
  {
    "Smiles": "Cc1ccc(O)c(CNCCc2c[nH]c3ccccc23)c1",
    "Readout Value": 0.91
  },
  {
    "Smiles": "COc1ccc(Cl)cc1CNCCc1c[nH]c2ccccc12",
    "Readout Value": 0.027
  },
  {
    "Smiles": "COc1ccc(F)cc1CNCCc1c[nH]c2ccccc12",
    "Readout Value": 0.87
  },
  {
    "Smiles": "Oc1ccc(F)cc1CNCCc1c[nH]c2ccccc12",
    "Readout Value": 0.35
  },
  {
    "Smiles": "COc1ccc2[nH]cc(CCNCc3ccccc3OC)c2c1",
    "Readout Value": 1.91
  },
  {
    "Smiles": "Oc1cccc(CNCCc2c[nH]c3ccccc23)c1",
    "Readout Value": 0.12
  },
  {
    "Smiles": "Cc1cccc(CNCCc2c[nH]c3ccccc23)c1",
    "Readout Value": 0.48
  },
  {
    "Smiles": "COc1ccc2[nH]cc(CCNCc3ccccc3)c2c1",
    "Readout Value": 0.71
  },
  {
    "Smiles": "COc1ccc(Br)cc1CNCCc1c[nH]c2ccccc12",
    "Readout Value": 0.015
  },
  {
    "Smiles": "Oc1cc(Br)ccc1CNCCc1c[nH]c2ccccc12",
    "Readout Value": 0.033
  }
]
